Where these numbers come from: patent US9040545B2

experimental.system: Aurora B (Homo sapiens)
Construct: cell lysates from Jurkat cells (ATCC TIB-152) used; endogenous in cells; host or cells: Jurkat cells (ATCC TIB-152), treated with pervanadate
procedure.text: Kinobeads assay, Aurora B
Type: binding
value.type: JAK3/AurB Fold Selectivity

[Q] What measured JAK3/AurB Fold Selectivity goes with C[C@H]1COCCN1c1cccc(Cn2ncc3cnc(Nc4cnn(C)c4)nc32)c1 [Example 112] ?
[A] >50 Fold

[Q] Query Cn1cc(Nc2ncc3cnn(Cc4cccc(N5CCOCC5)c4)c3n2)cn1 [Example 2] next
[A] >50 Fold

[Q] Query C[C@@H]1COCCN1c1cccc(Cn2ncc3cnc(Nc4cnn(C)c4)nc32)n1 [Example 1] next
[A] 10-50 Fold

[Q] Query CN(C)CC(F)Cn1cc(Nc2ncc3cnn(Cc4cc(F)cc(N5CCOCC5=O)c4)c3n2)cn1 (centres unmarked) [Example 97] next
[A] >50 Fold

[Q] Query OCCn1cc(Nc2ncc3cnn(Cc4cc(F)cc(N5CCNCC5)c4F)c3n2)cn1 [Example 96] next
[A] >50 Fold

[Q] Query CNC(=O)CCn1cc(Nc2ncc3cnn(Cc4cccc(N5CCOCC5)c4)c3n2)cn1 [Example 24] next
[A] >50 Fold

[Q] Query FC(F)Cn1cc(Nc2ncc3cnn(Cc4cccc(N5CCOCC5)c4)c3n2)cn1 [Example 23] next
[A] >50 Fold

[Q] Query CCOC(=O)C1CCCN(c2cccc(Cn3ncc4cnc(Nc5cnn(C)c5)nc43)c2)C1 (centres unmarked) [Example 13] next
[A] 10-50 Fold

[Q] Query Cn1cc(Nc2ncc3cnn(Cc4c(F)ccc(N5CCOCC5=O)c4F)c3n2)cn1 [Example 69] next
[A] 10-50 Fold

[Q] Query Cn1cc(Nc2ncc3cnn(Cc4cccc(N5CCN(S(C)(=O)=O)CC5)c4)c3n2)cn1 [Example 100] next
[A] 10-50 Fold

[Q] Query c1cc(Cn2ncc3cnc(Nc4cnn(CC5CCCNC5)c4)nc32)cc(N2CCOCC2)c1 (centres unmarked) [Example 48] next
[A] >50 Fold

[Q] Query Cn1cc(Nc2ncc3cnn(Cc4cccc(N5CCNCC5)c4F)c3n2)cn1 [Example 67] next
[A] 10-50 Fold

[Q] Query CCCn1cc(-c2cccc(Cn3ncc4cnc(Nc5cnn(C)c5)nc43)c2)cn1 [Example 119] next
[A] >50 Fold

[Q] Query Cn1cc(Nc2ncc3cnn(Cc4cccc(N5CCOCC5)c4F)c3n2)cn1 [Example 21] next
[A] >50 Fold

[Q] Query Cn1cc(Nc2ncc3cnn(Cc4cccc(-c5cnn(C)c5)c4)c3n2)cn1 [Example 115] next
[A] >50 Fold

[Q] Query Cc1c(Cn2ncc3cnc(Nc4cnn(C)c4)nc32)cccc1N1CCOCC1 [Example 11] next
[A] 10-50 Fold

[Q] Query COC1CN(c2cccc(Cn3ncc4cnc(Nc5cnn(C)c5)nc43)c2)C1 [Example 65] next
[A] >50 Fold

====

experimental.system: Aurora B (Homo sapiens, UniProt Q96GD4)
Construct: cell lysates from Jurkat cells (ATCC TIB-152) used; endogenous in cells; host or cells: Jurkat cells (ATCC TIB-152), treated with pervanadate
Sequence (Q96GD4 whole entry): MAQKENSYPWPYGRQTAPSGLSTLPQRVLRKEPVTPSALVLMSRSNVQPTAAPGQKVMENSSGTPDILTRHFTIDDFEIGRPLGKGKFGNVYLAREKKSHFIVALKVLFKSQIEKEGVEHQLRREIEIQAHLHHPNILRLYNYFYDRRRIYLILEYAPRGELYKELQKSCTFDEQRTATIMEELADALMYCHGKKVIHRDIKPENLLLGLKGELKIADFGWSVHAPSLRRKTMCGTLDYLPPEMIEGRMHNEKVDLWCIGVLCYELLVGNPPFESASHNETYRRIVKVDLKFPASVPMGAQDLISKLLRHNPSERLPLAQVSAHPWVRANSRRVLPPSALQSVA
procedure.text: Kinobeads assay, Aurora B
Type: binding
Field: JAK3/AurB Fold Selectivity. Provide a value for each of the compounds that follow.

[Q] What measured JAK3/AurB Fold Selectivity goes with Cn1cc(Nc2ncc3cnn(Cc4c(F)ccc(N5CCOCC5)c4F)c3n2)cn1 [Example 38] ?
[A] 10-50 Fold

[Q] Query Cn1cc(Nc2ncc3cnn(Cc4c(F)c(F)cc(N5CCOCC5=O)c4F)c3n2)cn1 [Example 61] next
[A] 10-50 Fold

[Q] Query CC(C)n1cc(-c2cccc(Cn3ncc4cnc(Nc5cnn(C)c5)nc43)c2)cn1 [Example 117] next
[A] >50 Fold

[Q] Query CC(CN(C)C)Cn1cc(Nc2ncc3cnn(Cc4cccc(N5CCOCC5)c4)c3n2)cn1 (centres unmarked) [Example 32] next
[A] >50 Fold

[Q] Query Cn1cc(Nc2ncc3cnn(Cc4cc(N5CCNCC5)cc(F)c4F)c3n2)cn1 [Example 86] next
[A] 10-50 Fold

[Q] Query CNC(=O)Cn1cc(Nc2ncc3cnn(Cc4cc(F)cc(N5CCOCC5=O)c4)c3n2)cn1 [Example 68] next
[A] >50 Fold

[Q] Query Cn1cc(Nc2ncc3cnn(Cc4cc(N5CCOCC5)cc(F)c4F)c3n2)cn1 [Example 37] next
[A] >50 Fold

[Q] Query O=C1COCCN1c1cc(F)cc(Cn2ncc3cnc(Nc4cnn(CCS(=O)(=O)NC5CC5)c4)nc32)c1 [Example 106] next
[A] 10-50 Fold

====

Field: IC50. Provide a value for each of the compounds that follow.
experimental.system: Aurora A (Homo sapiens)
Construct: cell lysates from Jurkat cells (ATCC TIB-152) used; endogenous in cells
Sequence (O14965 whole entry): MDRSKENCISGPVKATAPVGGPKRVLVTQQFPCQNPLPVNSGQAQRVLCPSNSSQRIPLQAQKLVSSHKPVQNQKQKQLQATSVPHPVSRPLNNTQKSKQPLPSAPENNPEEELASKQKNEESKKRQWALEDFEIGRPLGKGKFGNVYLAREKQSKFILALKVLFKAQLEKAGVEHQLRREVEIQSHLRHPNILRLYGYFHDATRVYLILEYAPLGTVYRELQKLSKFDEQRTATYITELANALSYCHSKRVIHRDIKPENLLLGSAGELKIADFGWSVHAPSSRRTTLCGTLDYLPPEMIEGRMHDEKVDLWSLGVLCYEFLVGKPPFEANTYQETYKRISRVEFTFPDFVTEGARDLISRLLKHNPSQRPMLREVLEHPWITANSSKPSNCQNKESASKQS
procedure.text: Kinobeads assay, Aurora A
condition.description: lysate of pervanadate-treated Jurkat cells, read-out: Inhibition values (IC50) Aur A

[Q] What measured IC50 goes with `Cn1cc(Nc2ncc3cnn(Cc4cc(-c5cnn(C)c5)cc(F)c4F)c3n2)cn1` ?
[A] 1 to 10 µM

[Q] Query `O=C1COCCN1c1cc(F)cc(Cn2ncc3cnc(Nc4cnn(CCO)c4)nc32)c1` next
[A] 0.1 to 1 µM

[Q] Query `CN(C)CC1(Cn2cc(Nc3ncc4cnn(Cc5cccc(N6CCOCC6)c5)c4n3)cn2)COC1` next
[A] 0.1 to 1 µM

[Q] Query `Cn1cc(Nc2ncc3cnn(Cc4cc(F)cc(C(=O)N5CCNCC5)c4)c3n2)cn1` next
[A] 0.1 to 1 µM

[Q] Query `Cn1cc(Nc2ncc3cnn(Cc4cccc(-c5cnn(CCO)c5)c4)c3n2)cn1` next
[A] 0.1 to 1 µM

[Q] Query `NCCCn1cc(Nc2ncc3cnn(Cc4cccc(N5CCOCC5)c4)c3n2)cn1` next
[A] 0.1 to 1 µM

[Q] Query `OCCn1cc(Nc2ncc3cnn(Cc4c(F)ccc(N5CCOCC5)c4F)c3n2)cn1` next
[A] 0.1 to 1 µM

[Q] Query `Cn1cc(Nc2ncc3cnn(Cc4cc(N5CCOCC5)cc(F)c4F)c3n2)cn1` next
[A] 1 to 10 µM

====

experimental.system: Aurora A (Homo sapiens)
Construct: cell lysates from Jurkat cells (ATCC TIB-152) used; endogenous in cells; host or cells: Jurkat cells (ATCC TIB-152), treated with pervanadate
procedure.text: Kinobeads assay, Aurora A
Format: binding
Procedure: The compounds of the present invention as described in the previous examples were tested in a Kinobeads™ assay as described for ZAP-70 (WO-A 2007/137867). […] Bound proteins were then eluted and the presence of JAK2 and JAK3 was detected and quantified using specific antibodies in a dot blot procedure and the Odyssey infrared detection system. Dose response curves for individual kinases were generated and IC50 values calculated. […]
Field: JAK3/AurA Fold Selectivity. Provide a value for each of the compounds that follow.

[Q] What measured JAK3/AurA Fold Selectivity goes with `O=C1COCCN1c1cc(F)cc(Cn2ncc3cnc(Nc4cnn(CCO)c4)nc32)c1` ?
[A] 10-50 Fold

[Q] Query `Cn1cc(Nc2ncc3cnn(Cc4cccc(N5CCOCC5=O)c4)c3n2)cn1` next
[A] 10-50 Fold

[Q] Query Fc1cc(N2CCOCC2)c(F)c(Cn2ncc3cnc(Nc4cnn(CC5CCNC5)c4)nc32)c1F (centres unmarked) next
[A] >50 Fold

[Q] Query `Cn1cc(Nc2ncc3cnn(Cc4cc(N5CCNCC5=O)cc(F)c4F)c3n2)cn1` next
[A] 10-50 Fold

[Q] Query `Cn1cc(Nc2ncc3cnn(Cc4cc(N5CCOCC5)cc(F)c4F)c3n2)cn1` next
[A] 10-50 Fold

[Q] Query `CNC(=O)Cn1cc(Nc2ncc3cnn(Cc4cc(F)cc(N5CCOCC5=O)c4)c3n2)cn1` next
[A] 10-50 Fold

[Q] Query `CN(C)C(=O)CCn1cc(Nc2ncc3cnn(Cc4cccc(N5CCOCC5)c4)c3n2)cn1` next
[A] 10-50 Fold

[Q] Query `Cn1cc(Nc2ncc3cnn(Cc4cccc(N5CCOCC5)c4)c3n2)cn1` next
[A] 10-50 Fold

[Q] Query `OCCn1cc(Nc2ncc3cnn(Cc4c(F)c(F)cc(N5CCOCC5)c4F)c3n2)cn1` next
[A] 10-50 Fold

[Q] Query `C[C@@H]1COCCN1c1cccc(Cn2ncc3cnc(Nc4cnn(C)c4)nc32)n1` next
[A] 3-10 Fold

[Q] Query `Cn1cc(Nc2ncc3cnn(Cc4cc(F)cc(C(=O)N5CCOCC5)c4)c3n2)cn1` next
[A] 10-50 Fold

[Q] Query CN(C)CC(F)Cn1cc(Nc2ncc3cnn(Cc4cc(F)cc(N5CCOCC5=O)c4)c3n2)cn1 (centres unmarked) next
[A] 10-50 Fold

[Q] Query `COC1CCN(c2cccc(Cn3ncc4cnc(Nc5cnn(C)c5)nc43)c2)CC1` next
[A] 3-10 Fold

[Q] Query c1cc(Cn2ncc3cnc(Nc4cnn(CC5CCCNC5)c4)nc32)cc(N2CCOCC2)c1 (centres unmarked) next
[A] >50 Fold

[Q] Query `O=C1COCCN1c1cc(F)c(F)c(Cn2ncc3cnc(Nc4cnn(CCO)c4)nc32)c1F` next
[A] 10-50 Fold

[Q] Query `Cn1cc(Nc2ncc3cnn(Cc4cccc(-c5cnn(CCO)c5)c4)c3n2)cn1` next
[A] 10-50 Fold

[Q] Query `Cn1cc(Nc2ncc3cnn(Cc4cccc(-c5cn[nH]c5)c4)c3n2)cn1` next
[A] 10-50 Fold
